Source: ChEMBL document CHEMBL1138206

- Tested on: Plasmodium falciparum
Assign class by Km: not lower than 2 µM means T; lower than 2 µM means F.

O=c1[nH]cnc2[nH]nnc12 | T
Nc1nc(O)c2[nH]nnc2n1 | T
Oc1ncnc2[nH]ncc12 | T
O=c1[nH]cnc2nc[nH]c12 | F

Consider now this further molecule.
Determine whether measured Km meets or exceeds 2 µM for Nc1nc2[nH]cnc2c(=S)[nH]1
F

---

- Assay Explanation: Inhibition of Toxoplasma gondii 6 oxopurine phosphoribosyl transferase
Measured Parameter: pKi
One number for each entry, as −log10 of the molar value.

Bench note: what pKi did Nc1nc2ncnc-2c[nH]1 show?
4.22

---

# Km per entry for Plasmodium falciparum
Answers are plain numbers, in µM.

Worked examples, 5 compounds total:
O=c1[nH]c(=S)c2nc[nH]c2[nH]1 | 82
Nc1nc2[nH]cnc2c(=O)[nH]1 | 0.83
Nc1nc(O)c2[nH]nnc2n1 | 12.6
Nc1nc(Cl)c2nc[nH]c2n1 | 176
O=c1[nH]c(=O)c2nc[nH]c2[nH]1 | 189

Hey, can you go through the list below and give me Km for every item?
1. O=c1[nH]cnc2nc[nH]c12
2. Nc1nc2[nH]cnc2c(=S)[nH]1
3. Oc1ncnc2[nH]ncc12
4. O=c1[nH]cnc2[nH]nnc12
5. Sc1ncnc2nc[nH]c12 [MERCAPTOPURINE ANHYDROUS]

[0.07, 0.75, 10.5, 25.6, 0.02]
